Molecular target: Neutrophil elastase (Homo sapiens, UniProt P08246)
Sequence (P08246 whole entry): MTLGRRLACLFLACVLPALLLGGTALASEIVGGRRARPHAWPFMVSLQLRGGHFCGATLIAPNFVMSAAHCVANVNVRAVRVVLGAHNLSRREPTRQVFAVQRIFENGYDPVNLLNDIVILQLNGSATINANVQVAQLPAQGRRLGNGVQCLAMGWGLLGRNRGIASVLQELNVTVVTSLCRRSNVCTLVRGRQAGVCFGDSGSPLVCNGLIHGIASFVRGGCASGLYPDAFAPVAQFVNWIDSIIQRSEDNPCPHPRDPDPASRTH
Experiment: Inhibition constant (steady state) against Human Leukocyte Elastase (HLE)
Measured parameter: Ki ss (nM)

# annotated cases, reported Ki ss shown
Item under review: CO[C@H]1C(=O)N2C(C(=O)C(C)(C)C)=C(C)[C@@H](Sc3nnc(C)s3)S(=O)(=O)C12 (stereo not given in full) . Reported Ki ss?
12

Item under review: CO[C@H]1C(=O)N2C(C(=O)OC(C)(C)C)=C(CSc3ccccn3)CS(=O)(=O)C12 (stereo not given in full) . Reported Ki ss?
100

[I] CO[C@H]1C(=O)N2C(C(=O)C(C)(C)C)=C(C)[C@@H](Sc3nnnn3C)S(=O)(=O)C12 (stereo not given in full)
[II] COC(=O)C1=C(COC(C)=O)CS(=O)(=O)C2[C@@H](Cl)C(=O)N12 (stereo not given in full)
Which record would sort first by descending Ki ss, I or II ? Your answer should be the label attached to the chosen record.
II
(II: 12 nM, I: 8 nM)

[A] CO[C@H]1C(=O)N2C(C(=O)OC(C)(C)C)=C(CSc3nnnn3C)CS(=O)(=O)C12 (stereo not given in full)
[B] CO[C@H]1C(=O)N2C(C(=O)c3ccccc3)=C(CSc3nnnn3C)[C@@H](Sc3nnnn3C)S(=O)(=O)C12 (stereo not given in full)
[C] CO[C@H]1C(=O)N2C(C(=O)C(C)(C)C)=C(CSc3nnnn3C)[C@@H](Sc3nnnn3C)S(=O)(=O)C12 (stereo not given in full)
[D] CO[C@H]1C(=O)N2C(C(=O)C(C)(C)C)=C(CSc3nnnn3C)CS(=O)(=O)C12 (stereo not given in full)
Sort these compounds on Ki ss so the largest reading comes first. Output the labels ranked as instructed.
C, B, D, A
(C: 93 nM, B: 55 nM, D: 34 nM, A: 13 nM)

[P] CO[C@H]1C(=O)N2C(C(=O)C(C)(C)C)=C(C)CS(=O)(=O)C12 (stereo not given in full)
[Q] CO[C@H]1C(=O)N2C(C(=O)C(C)(C)C)=C(CSc3nc(=O)c(=O)[nH]n3C)CS(=O)(=O)C12 (stereo not given in full)
Smaller Ki ss value? Options are P and Q Your answer should be the label attached to the chosen record.
Q

* * *

Items are presented alongside their recorded Ki ss.
Molecular target: Neutrophil elastase (Homo sapiens, UniProt P08246)
Assay: Inhibition constant (steady state) against Human Leukocyte Elastase (HLE)

# annotated cases, reported Ki ss shown
Item under review: CO[C@H]1C(=O)N2C(C(=O)C(C)(C)C)=C(C)[C@@H](OC(=O)c3ccc4ccccc4c3)S(=O)(=O)C12 (stereo not given in full) . Reported Ki ss?
< 2 nM

Item under review: CC1=C(C(=O)c2ccccc2)N2C(=O)[C@H](Cl)C2S(=O)(=O)C1 (stereo not given in full) . Reported Ki ss?
130 nM

Item under review: CO[C@H]1C(=O)N2C(C(=O)C(C)(C)C)=C(C)[C@@H](OC(=O)C(C)(C)C)S(=O)(=O)C12 (stereo not given in full) . Reported Ki ss?
< 2 nM

Item under review: CO[C@H]1C(=O)N2C(C(=O)C(C)(C)C)=C(C)[C@@H](OC(=O)c3ccccc3)S(=O)(=O)C12 (stereo not given in full) . Reported Ki ss?
< 2 nM

Now for a further compound.
Item under review: CO[C@H]1C(=O)N2C(C(=O)C(C)(C)C)=C(C)[C@@H](OC(=O)CCC(=O)c3ccccc3)S(=O)(=O)C12 (stereo not given in full) . Reported Ki ss?
< 2 nM

The values you see were collected from ChEMBL document CHEMBL1127413.
